Tested on: PC-3
Test: The concentration to inhibit colony formation of PC3 human tumor cell lines
Format: functional
MEASURED_PROPERTY: Inhibition (%)
# number only, unit % dropped from output

{"COMPOUND_STRUCTURE": "CC(=O)NCCCC[C@H](NC(=O)[C@H](Cc1c[nH]c2ccccc12)NC(=O)[C@H](Cc1c[nH]cn1)NC(=O)[C@@H]1CCC(=O)N1)C(=O)N[C@@H](Cc1c[nH]cn1)C(=O)N[C@@H](CC(=O)O)C(=O)N[C@@H](Cc1c[nH]c2ccccc12)C(=O)N[C@@H](CCCCN)C(=O)N1CCC[C@H]1C(=O)NCC(N)=O", "Inhibition, %": 12}
{"COMPOUND_STRUCTURE": "NC(=O)CNC(=O)[C@@H]1CCCN1C(=O)[C@@H]1CCCCNC(=O)C[C@H](NC(=O)[C@H](Cc2c[nH]cn2)NC(=O)[C@H](CO)NC(=O)[C@H](Cc2c[nH]c3ccccc23)NC(=O)[C@H](Cc2c[nH]cn2)NC(=O)[C@@H]2CCC(=O)N2)C(=O)N[C@@H](Cc2c[nH]c3ccccc23)C(=O)N1", "Inhibition, %": 18}

Let's switch to this compound now.
Task: Supply Inhibition measured with PC-3 for `NCCCC[C@H](NC(=O)[C@H](Cc1c[nH]c2ccccc12)NC(=O)[C@H](CC(=O)O)NC(=O)[C@H](Cc1c[nH]cn1)NC(=O)[C@H](CO)NC(=O)[C@H](Cc1c[nH]c2ccccc12)NC(=O)[C@H](Cc1c[nH]cn1)NC(=O)[C@@H]1CCC(=O)N1)C(=O)N1CCC[C@H]1C(=O)NCC(N)=O` .
Output: 21

Each recorded value in this set is attributed to ChEMBL document CHEMBL1130330.
